test: Mouse IV PK; conditions: mouse, plasma, iv, 25 mg/kg
QUANTITY NAME: clearance (mL/min/kg)
# unit: mL/min/kg | format: bare number

The cases that follow already have their clearance on record.
COc1c(OCC2CCOCC2)cc(N2C[C@@H](C)n3c(c(CCCOc4cc(C)c(Cl)c(C)c4)c4ccc(Cl)c(-c5c(C)nc(C)nc5C)c43)C2=O)c2c1cc(C(=O)O)n2C	2.2
COc1cc(N2C[C@@H](C)n3c(c(CCCOc4cc(C)c(Cl)c(C)c4)c4ccc(Cl)c(-c5c(C)nn(C)c5C)c43)C2=O)c2c(cc(C(=O)O)n2C)c1OC	70

# input Value lookup for clearance; key = `COc1c(OC[C@@H]2CCCO2)cc(N2C[C@@H](C)n3c(c(CCCOc4cc(C)c(Cl)c(C)c4)c4ccc(Cl)c(-c5c(C)nc(C)nc5C)c43)C2=O)c2c1cc(C(=O)O)n2C`
# output 8.9

# input Then `CCOc1c(OCC2CCOCC2)cc(N2C[C@@H](C)n3c(c(CCCOc4cc(C)c(Cl)c(C)c4)c4ccc(Cl)c(-c5c(C)nc(C)nc5C)c43)C2=O)c2c1cc(C(=O)O)n2C` ?
# output 3.7

# input Same lookup for `COc1c(OCC2CCOCC2)cc(N2C[C@@H](C)n3c(c(CCCOc4cc(C)c(Cl)c(C)c4)c4ccc(Cl)c(-c5c(C)ncnc5C)c43)C2=O)c2c1cc(C(=O)O)n2C` , please.
# output 7

----------
Recorded AUC/Dose for the following compounds
experiment: Mouse IV PK; conditions: mouse IV, dosed at 20 mg/kg, dose normalized
Marks after values point to notes of the source that are not given here.

CCOc1c(OCC2CCOCC2)cc(N2C[C@@H](C)n3c(c(CCCOc4cc(C)c(Cl)c(C)c4)c4ccc(Cl)c(-c5c(C)nc(C)nc5C)c43)C2=O)c2c1cc(C(=O)O)n2C [Compound 32]	4930^d nM*h/mpk
COc1c(OC[C@@H]2CCCO2)cc(N2C[C@@H](C)n3c(c(CCCOc4cc(C)c(Cl)c(C)c4)c4ccc(Cl)c(-c5c(C)nc(C)nc5C)c43)C2=O)c2c1cc(C(=O)O)n2C [Compound 27]	2190^d nM*h/mpk

Next item in the queue.
# input Reported AUC/Dose for CCOc1c(O[C@H]2CCOC2)cc(N2C[C@@H](C)n3c(c(CCCOc4cc(C)c(Cl)c(C)c4)c4ccc(Cl)c(-c5c(C)nc(C)nc5C)c43)C2=O)c2c1cc(C(=O)O)n2C [Compound 31] : what is it?
# output 2465^d nM*h/mpk

----------
Below: a set of entries, each annotated with reported clearance.
experiment: Mouse IV PK; details: mouse, plasma, iv, 25 mg/kg
Unit mL/min/kg implied. Number only.

# input So what's the measured clearance for this one? `COc1c(O[C@@H]2CCOC2)cc(N2C[C@@H](C)n3c(c(CCCOc4cc(C)c(Cl)c(C)c4)c4ccc(Cl)c(-c5c(C)nc(C)nc5C)c43)C2=O)c2c1cc(C(=O)O)n2C`
# output 13

# input Proceed to `COc1c(O[C@H]2CCOC2)cc(N2C[C@@H](C)n3c(c(CCCOc4cc(C)c(Cl)c(C)c4)c4ccc(Cl)c(-c5c(C)nc(C)nc5C)c43)C2=O)c2c1cc(C(=O)O)n2C`
# output 19

# input Another molecule to look at: `CCOc1c(O[C@H]2CCOC2)cc(N2C[C@@H](C)n3c(c(CCCOc4cc(C)c(Cl)c(C)c4)c4ccc(Cl)c(-c5c(C)nc(C)nc5C)c43)C2=O)c2c1cc(C(=O)O)n2C`
# output 8.7

# input // repeat for `COc1c(OC[C@H]2CCCO2)cc(N2C[C@@H](C)n3c(c(CCCOc4cc(C)c(Cl)c(C)c4)c4ccc(Cl)c(-c5c(C)ncnc5C)c43)C2=O)c2c1cc(C(=O)O)n2C` and report
# output 15

# input Now consider `COc1cc(N2C[C@@H](C)n3c(c(CCCOc4cc(C)c(Cl)c(C)c4)c4ccc(Cl)c(-c5c(C)nc(C)nc5C)c43)C2=O)c2c(cc(C(=O)O)n2C)c1OC` and answer again.
# output 45

# input Try this molecule next: `COc1cc(N2C[C@@H](C)n3c(c(CCCOc4cc(C)c(Cl)c(C)c4)c4ccc(Cl)c(-c5c(C)ncnc5C)c43)C2=O)c2c(cc(C(=O)O)n2C)c1OC`
# output 43
